- test-system: FGF-R4 (Homo sapiens)
- Construct: host or cells: baculovirus system
- Sequence (P22455 22-802): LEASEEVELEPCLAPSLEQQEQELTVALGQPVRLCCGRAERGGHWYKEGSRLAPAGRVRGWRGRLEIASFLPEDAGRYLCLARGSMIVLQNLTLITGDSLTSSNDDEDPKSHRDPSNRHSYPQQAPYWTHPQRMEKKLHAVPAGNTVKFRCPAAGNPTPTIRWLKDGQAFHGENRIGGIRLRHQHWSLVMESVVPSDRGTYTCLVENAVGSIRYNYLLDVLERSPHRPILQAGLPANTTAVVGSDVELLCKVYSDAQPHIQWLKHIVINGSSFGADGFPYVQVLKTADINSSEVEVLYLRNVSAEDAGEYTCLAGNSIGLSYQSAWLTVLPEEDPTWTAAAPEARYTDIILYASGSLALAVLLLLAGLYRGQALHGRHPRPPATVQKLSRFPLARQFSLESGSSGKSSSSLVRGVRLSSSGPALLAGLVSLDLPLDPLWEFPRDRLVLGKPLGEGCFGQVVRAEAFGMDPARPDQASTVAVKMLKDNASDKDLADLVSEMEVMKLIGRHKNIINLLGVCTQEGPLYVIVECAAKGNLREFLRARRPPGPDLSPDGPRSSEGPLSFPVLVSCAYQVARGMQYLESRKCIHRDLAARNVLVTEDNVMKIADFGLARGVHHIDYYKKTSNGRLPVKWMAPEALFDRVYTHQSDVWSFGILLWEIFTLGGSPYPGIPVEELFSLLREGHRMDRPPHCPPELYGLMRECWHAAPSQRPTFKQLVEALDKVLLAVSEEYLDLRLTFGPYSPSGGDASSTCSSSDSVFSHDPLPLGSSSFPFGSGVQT
- test-name: recombinant kinase transphosphorylation (33P-ATP) profiling, FGF-R4
- Assay type: biochemical
- measurement-conditions: 10 concentrations, n=1
property-label: IC50

Problem: Look at this compound and give its reported IC50. COc1cc2ncc(N[C@H]3CC[C@H](O)CC3)nc2cc1OC [GN963]
Solution: > 10000 nM

* * *

- test-system: Kit (Homo sapiens)
- Construct: host or cells: baculovirus system
- Sequence (P10721 26-976): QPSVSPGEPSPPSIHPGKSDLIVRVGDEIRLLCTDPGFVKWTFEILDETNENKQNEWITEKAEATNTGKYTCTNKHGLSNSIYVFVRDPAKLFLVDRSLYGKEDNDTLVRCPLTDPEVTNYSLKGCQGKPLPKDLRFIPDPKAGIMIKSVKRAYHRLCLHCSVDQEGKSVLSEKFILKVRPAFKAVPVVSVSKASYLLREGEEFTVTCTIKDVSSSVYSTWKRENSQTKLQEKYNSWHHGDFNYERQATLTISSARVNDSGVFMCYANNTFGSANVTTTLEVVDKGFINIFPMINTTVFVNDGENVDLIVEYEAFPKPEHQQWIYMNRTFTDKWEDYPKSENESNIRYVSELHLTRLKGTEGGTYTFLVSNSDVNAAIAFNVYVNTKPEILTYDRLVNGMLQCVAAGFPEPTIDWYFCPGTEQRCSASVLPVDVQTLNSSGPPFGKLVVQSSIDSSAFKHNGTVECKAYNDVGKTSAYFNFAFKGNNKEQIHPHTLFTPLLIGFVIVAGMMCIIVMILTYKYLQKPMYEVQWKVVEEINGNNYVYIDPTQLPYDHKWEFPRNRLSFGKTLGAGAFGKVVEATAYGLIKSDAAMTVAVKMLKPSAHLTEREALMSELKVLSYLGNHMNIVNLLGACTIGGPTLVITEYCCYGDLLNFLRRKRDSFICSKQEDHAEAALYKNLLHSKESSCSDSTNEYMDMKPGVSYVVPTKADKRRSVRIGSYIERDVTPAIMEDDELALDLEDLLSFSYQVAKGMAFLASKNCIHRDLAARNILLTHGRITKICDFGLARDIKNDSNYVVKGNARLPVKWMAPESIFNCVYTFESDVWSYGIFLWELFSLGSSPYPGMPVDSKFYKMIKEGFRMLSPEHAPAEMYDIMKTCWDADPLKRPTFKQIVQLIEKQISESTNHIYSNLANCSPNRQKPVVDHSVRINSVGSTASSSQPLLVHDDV
- test-name: recombinant kinase transphosphorylation (33P-ATP) profiling, Kit
- Format: biochemical
- measurement-conditions: 10 concentrations, n=1
property-label: IC50 (nM)
Give the number; nM is assumed, so skip it.

Problem: Looking for the measured IC50 of COc1cc2ncc(N[C@H]3CC[C@H](O)CC3)nc2cc1OC [GN963] , can you help?
Solution: 7200

* * *

- test-system: Flt-3 (Homo sapiens)
- Construct: host or cells: baculovirus system
- Sequence (P36888 27-993): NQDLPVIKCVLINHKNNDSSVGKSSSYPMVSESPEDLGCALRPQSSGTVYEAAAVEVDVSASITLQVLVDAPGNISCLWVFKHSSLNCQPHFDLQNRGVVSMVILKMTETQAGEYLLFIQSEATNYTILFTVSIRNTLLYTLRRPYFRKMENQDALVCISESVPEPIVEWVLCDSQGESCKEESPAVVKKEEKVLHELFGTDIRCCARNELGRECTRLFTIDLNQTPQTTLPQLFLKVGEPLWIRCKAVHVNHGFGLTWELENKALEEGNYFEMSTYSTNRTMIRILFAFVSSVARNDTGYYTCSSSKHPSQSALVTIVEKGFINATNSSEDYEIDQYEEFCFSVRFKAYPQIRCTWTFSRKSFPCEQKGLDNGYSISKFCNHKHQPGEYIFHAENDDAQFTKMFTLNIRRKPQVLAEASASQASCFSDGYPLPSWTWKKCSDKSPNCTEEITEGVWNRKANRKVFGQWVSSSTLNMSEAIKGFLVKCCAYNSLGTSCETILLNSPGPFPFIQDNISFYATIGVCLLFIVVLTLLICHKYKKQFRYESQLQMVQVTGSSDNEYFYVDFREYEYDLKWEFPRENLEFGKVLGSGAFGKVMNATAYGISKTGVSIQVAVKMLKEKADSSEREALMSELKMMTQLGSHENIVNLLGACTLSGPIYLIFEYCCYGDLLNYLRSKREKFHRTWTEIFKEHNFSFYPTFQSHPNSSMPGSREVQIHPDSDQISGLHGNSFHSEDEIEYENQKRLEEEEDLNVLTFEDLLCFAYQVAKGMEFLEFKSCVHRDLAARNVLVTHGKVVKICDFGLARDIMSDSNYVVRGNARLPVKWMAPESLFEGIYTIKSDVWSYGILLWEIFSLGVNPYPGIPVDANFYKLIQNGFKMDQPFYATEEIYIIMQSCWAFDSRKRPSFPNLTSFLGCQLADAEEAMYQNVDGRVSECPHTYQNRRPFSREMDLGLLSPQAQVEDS
- test-name: recombinant kinase transphosphorylation (33P-ATP) profiling, Flt-3
- Format: biochemical
- measurement-conditions: 10 concentrations, n=1
property-label: IC50 (nM)
A number alone suffices; assume nM.

Problem: Which value of IC50 has been reported for COc1cc2ncc(N[C@H]3CC[C@H](O)CC3)nc2cc1OC [GN963] in the records?
Solution: 1400

* * *

- test-system: Eph-B4 (Homo sapiens, UniProt P54760)
- Construct: host or cells: baculovirus system
- Sequence (P54760 16-987): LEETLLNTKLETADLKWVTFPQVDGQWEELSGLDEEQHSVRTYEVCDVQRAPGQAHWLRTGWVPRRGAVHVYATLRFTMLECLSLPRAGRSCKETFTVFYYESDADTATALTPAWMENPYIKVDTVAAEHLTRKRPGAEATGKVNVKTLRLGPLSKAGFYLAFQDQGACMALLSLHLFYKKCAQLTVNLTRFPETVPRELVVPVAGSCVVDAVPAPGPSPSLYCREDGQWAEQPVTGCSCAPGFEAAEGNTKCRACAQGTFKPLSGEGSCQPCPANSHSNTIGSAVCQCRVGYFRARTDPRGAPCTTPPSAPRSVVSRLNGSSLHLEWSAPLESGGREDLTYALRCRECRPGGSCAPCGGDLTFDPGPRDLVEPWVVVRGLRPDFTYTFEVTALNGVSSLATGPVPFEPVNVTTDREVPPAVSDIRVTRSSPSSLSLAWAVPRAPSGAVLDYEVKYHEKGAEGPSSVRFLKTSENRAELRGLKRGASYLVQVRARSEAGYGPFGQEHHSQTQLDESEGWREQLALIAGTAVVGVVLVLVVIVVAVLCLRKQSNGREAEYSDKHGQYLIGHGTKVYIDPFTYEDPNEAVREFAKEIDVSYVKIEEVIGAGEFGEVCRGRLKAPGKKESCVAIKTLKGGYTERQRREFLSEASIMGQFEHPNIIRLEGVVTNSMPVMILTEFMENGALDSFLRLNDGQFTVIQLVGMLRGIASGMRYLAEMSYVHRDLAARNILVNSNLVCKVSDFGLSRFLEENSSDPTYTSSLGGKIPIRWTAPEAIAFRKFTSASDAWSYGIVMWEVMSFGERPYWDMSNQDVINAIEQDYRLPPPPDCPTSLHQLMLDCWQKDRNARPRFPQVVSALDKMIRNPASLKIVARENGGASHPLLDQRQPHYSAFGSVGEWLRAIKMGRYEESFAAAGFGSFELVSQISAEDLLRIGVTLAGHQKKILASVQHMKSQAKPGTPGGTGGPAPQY
- test-name: recombinant kinase transphosphorylation (33P-ATP) profiling, Eph-B4
- Type: biochemical
- measurement-conditions: 10 concentrations, n=1
property-label: IC50 (nM)
Your answer is read as nM, so omit the unit and give the number.

Problem: Please look up its IC50: COc1cc2ncc(N[C@H]3CC[C@H](O)CC3)nc2cc1OC [GN963]
Solution: 7200

* * *

- Tested on: MOLM-13 cells (FLT3-ITD)
- test-name: MOLM-13 cell growth, luminescence assay at 72 hours
- Type: cell-based
- measurement-conditions: Homo sapiens; MOLM-13, 72 h with inhibitor, Cell Titer-Glo; range stated for MV4-11 and MOLM-13 together; read-out: IC50, inhibition of cellular proliferation
pIC50: −log10 of the molar value.
property-label: pIC50

Problem: Fill in: pIC50 of COc1cc2ncc(N[C@H]3CC[C@H](O)CC3)nc2cc1OC [GN963] is ___
Solution: 5.70 to 6.15
